B1: Unconventional myosin-Ie, residues 1051 to 1108; numbered along this chain, Q12965 (parent)
chain: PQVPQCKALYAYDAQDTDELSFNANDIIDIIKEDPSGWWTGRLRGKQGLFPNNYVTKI

Variants of: B1
Procedure summary: abundance fitness (aPCA) (normalised: wild type 0, dead -1); higher = more abundant; growth selection in yeast, the domain comes from the species named
Setup conditions: Homo sapiens
Grouping rule (abundance fitness): class 0: < -0.3; class 1: ≥ -0.3 and < -0.1; class 2: ≥ -0.1

Request: Which bin should I file P1G under?
Response: class 1

Request: Could you tell me which band C6I belongs to?
Response: class 0

Request: Lab note: which band did P35I land in?
Response: class 1

Request: Category of L9C :
Response: class 1

Request: Please let me know in which category the item N25G belongs.
Response: class 2

Request: // bin(item) where item = L9N
Response: class 1

Request: Which abundance fitness band matches G37I ?
Response: class 0

Request: Into which category would you place R44C ?
Response: class 1

Request: # bin label for G48Q
Response: class 0

Request: Lab note: which band did D26R land in?
Response: class 0

Request: Hi there! Could you help me figure out the category for P1W please?
Response: class 1

Request: Consider D29M . To which abundance fitness class does it belong?
Response: class 1

Request: Dear colleague, I would appreciate it if you could identify the bin for D26E and reply at your convenience.
Response: class 2

Request: Into which category would you place D26S ?
Response: class 0

Request: State the class of the variant shown: Y12H
Response: class 1

Request: Categorize the following entry: E33H
Response: class 0

Request: Hi there! Could you help me figure out the category for T56F please?
Response: class 2

Request: Which band does T56A fall in?
Response: class 2

Request: Pick a category. Item: Y10A
Response: class 1

Request: Category of Q5C :
Response: class 1

Request: For the record K57Y , report the class its abundance fitness corresponds to.
Response: class 2

Request: Which band does D16E fall in?
Response: class 2

Request: Hi, small favor: classify A24R by its abundance fitness when you get a moment.
Response: class 2

Request: Please classify: C6M
Response: class 1

Request: Bin? Y54M
Response: class 1

Request: The entry to classify is N52M ; which class holds it?
Response: class 1

Request: Input I27P ; output its category
Response: class 0

Request: Please let me know in which category the item K7W belongs.
Response: class 1

Request: Please let me know in which category the item E33I belongs.
Response: class 1

Request: Could you place I31M in its proper category? Many thanks.
Response: class 2

Request: For this variant, which bin applies? Q15W
Response: class 0

Request: Which class holds N25M ?
Response: class 1

Request: Hello team, could you let me know which band the following variant falls into: G45A
Response: class 0

Request: Please report the category associated with I31V , nothing else.
Response: class 2

Request: Bin this entry: W39D
Response: class 0

Request: Which class is correct for the following variant? N52L
Response: class 2

Request: // return the class label for G45P
Response: class 0

Request: Form field 'band' for N52E
Response: class 2

Request: Which class is correct for the following variant? S21N
Response: class 1

Request: Quick check: band for P51L
Response: class 1

Request: Category lookup for the variant I31D
Response: class 0

Request: Record L43G — which class?
Response: class 0

Request: Which class holds K46F ?
Response: class 0

Request: Please classify: G41L
Response: class 0

Request: Please let me know in which category the item A14C belongs.
Response: class 1

Request: Which bin should I file S21E under?
Response: class 1

Request: # bin lookup: classify T40W by its abundance fitness
Response: class 2

Request: Class for Q47W ?
Response: class 1

Request: Exercise: read the entry N53A and state which class it falls under.
Response: class 1

Request: Pick a category. Item: V55G
Response: class 0

Request: Please indicate the class for T17Y based on its abundance fitness.
Response: class 1

Request: Would you mind sorting I31E into the appropriate category?
Response: class 1

Request: Please report the category associated with N23C , nothing else.
Response: class 2

Request: Place this variant in its band: T56W
Response: class 1

Request: For the record Q47S , report the class its abundance fitness corresponds to.
Response: class 1

Request: Into which category would you place A24H ?
Response: class 2

Request: Sort N23S into one of the categories.
Response: class 2

Request: Into which category would you place Q5L ?
Response: class 1

Request: Into which category would you place D29F ?
Response: class 0

Request: // bin(item) where item = F22K
Response: class 0

Request: Which abundance fitness category applies to P51Y here?
Response: class 0

Request: Returns: class label. Input: L49R
Response: class 2

Request: In plain terms, what class is N53E ?
Response: class 2

Request: Quick check: band for A11C
Response: class 1

Request: Bin this entry: Q2W
Response: class 1

Request: Just checking, what class would you give I28V here?
Response: class 0

Request: Categorize the following entry: D18Y
Response: class 2

Request: # classify by abundance fitness band: K32G
Response: class 2

Request: Dear colleague, I would appreciate it if you could identify the bin for I30G and reply at your convenience.
Response: class 0

Request: Which class does T17G fall in?
Response: class 2

Request: Categorize the following entry: L43S
Response: class 1

Request: Input I30H ; output its category
Response: class 0

Request: Assign a bin to A14D
Response: class 0

Request: Which bin should I file Q15Y under?
Response: class 0

Request: Quick check: band for L49I
Response: class 1

Request: Which category fits this record: S21D
Response: class 1

Request: Note: place this variant into its band. Item: K32T
Response: class 1

Request: Each variant maps to one class by abundance fitness. Which class for G37W ?
Response: class 0

Request: Please report the category associated with D16Q , nothing else.
Response: class 1

Request: Given K57Q , name the class its abundance fitness places it in.
Response: class 0

Request: Please classify: D29S
Response: class 1

Request: Hi, small favor: classify D13Q by its abundance fitness when you get a moment.
Response: class 2

Request: Given D13I , name the class its abundance fitness places it in.
Response: class 2

Request: Could you tell me which band E19D belongs to?
Response: class 0

Request: Sort K57V into one of the categories.
Response: class 1

Request: # bin label for N25R
Response: class 1

Request: Could you tell me which band F50D belongs to?
Response: class 0

Request: Assign a category based on measured abundance fitness for W39P and give only the class name.
Response: class 0
